Data provenance: patent US3997598A

# test_details: physchem
# experimental_context: 30% aqueous dipotassium hydrogen phosphate
quantity_name: solubility

Prompt: Recorded solubility for C/C=C/C=C/C(=O)O , please?
Response: 79 mg/mL
